EXPERIMENT NOTES: Cytotoxicity, MTS assay, normal heart muscle cells (Example 1)
ASSAY CONDITIONS: rat, H9C2 heart/myocardium cells
READOUT: viability at 72 h, 10 µM (%)
Give the quantity in %, number only.

viability at 72 h, 10 µM measured on N=C(N)NCCC[C@@H]1NC(=O)[C@H](CCCCNC(=O)[C@H](Cc2c[nH]c3ccccc23)NC(=O)[C@H](Cc2c[nH]c3ccccc23)NC(=O)[C@H](Cc2c[nH]c3ccccc23)NC(=O)[C@H](Cc2c[nH]c3ccccc23)NC(=O)[C@H](Cc2c[nH]c3ccccc23)NC(=O)[C@H](Cc2c[nH]c3ccccc23)NC(=O)[C@H](Cc2c[nH]c3ccccc23)NC(=O)CCN)NC(=O)[C@H](CCCNC(=N)N)NC(=O)[C@H](CCCNC(=N)N)NC(=O)[C@H](CCCNC(=N)N)NC(=O)[C@H](CCCNC(=N)N)NC1=O [[R5K]W7A] = 105

* * *

System: MDA-231WT cells
EXPERIMENT NOTES: LC50 by CCK-8 assay, wild-type cells
Type: cell-based
ASSAY CONDITIONS: MDA-231WT (wild type); FIG. 10: after 72 h
READOUT: CC50 (nM)
Give the quantity in nM, number only.

CC50 measured on COc1cccc2c1C(=O)c1c(O)c3c(c(O)c1C2=O)C[C@@](O)(C(=O)CO)C[C@@H]3O[C@H]1C[C@H](N)[C@H](O)[C@H](C)O1 [Dox, doxorubicin, reference compound] = 450

* * *

Test system: MES-SA/MX2 cells
EXPERIMENT NOTES: LC50 by CCK-8 assay, Dox-resistant MES-SA/MX2
Type: cell-based
ASSAY CONDITIONS: FIG. 10: after 72 h
READOUT: CC50 (µM)
Give the quantity in µM, number only.

CC50 measured on COc1cccc2c1C(=O)c1c(O)c3c(c(O)c1C2=O)C[C@@](O)(C(=O)CO)C[C@@H]3O[C@H]1C[C@H](N)[C@H](O)[C@H](C)O1 [Dox, doxorubicin, reference compound] = 41

* * *

EXPERIMENT NOTES: Cytotoxicity, MTS assay, normal kidney cells
ASSAY CONDITIONS: pig, LLC-PK1 kidney cells
READOUT: viability at 24 h, 10 µM (%)
Give the quantity in %, number only.

viability at 24 h, 10 µM measured on N=C(N)NCCC[C@@H]1NC(=O)[C@H](CCCCNC(=O)[C@H](Cc2c[nH]c3ccccc23)NC(=O)[C@H](Cc2c[nH]c3ccccc23)NC(=O)[C@H](Cc2c[nH]c3ccccc23)NC(=O)[C@H](Cc2c[nH]c3ccccc23)NC(=O)[C@H](Cc2c[nH]c3ccccc23)NC(=O)[C@H](Cc2c[nH]c3ccccc23)NC(=O)[C@H](Cc2c[nH]c3ccccc23)NC(=O)CCN)NC(=O)[C@H](CCCNC(=N)N)NC(=O)[C@H](CCCNC(=N)N)NC(=O)[C@H](CCCNC(=N)N)NC(=O)[C@H](CCCNC(=N)N)NC1=O [[R5K]W7A] = 86

* * *

EXPERIMENT NOTES: Cytotoxicity, MTS assay, normal kidney cells
ASSAY CONDITIONS: pig, LLC-PK1 kidney cells
READOUT: viability at 72 h, 10 µM (%)
Give the quantity in %, number only.

viability at 72 h, 10 µM measured on N=C(N)NCCC[C@@H]1NC(=O)[C@H](CCCCNC(=O)[C@H](Cc2c[nH]c3ccccc23)NC(=O)[C@H](Cc2c[nH]c3ccccc23)NC(=O)[C@H](Cc2c[nH]c3ccccc23)NC(=O)[C@H](Cc2c[nH]c3ccccc23)NC(=O)[C@H](Cc2c[nH]c3ccccc23)NC(=O)[C@H](Cc2c[nH]c3ccccc23)NC(=O)[C@H](Cc2c[nH]c3ccccc23)NC(=O)CCN)NC(=O)[C@H](CCCNC(=N)N)NC(=O)[C@H](CCCNC(=N)N)NC(=O)[C@H](CCCNC(=N)N)NC(=O)[C@H](CCCNC(=N)N)NC1=O [[R5K]W7A] = 100
